Reported values of protein stability index for individual entries
B1: ZNF263 (parent)
chain: EKPYKCPECGEIFAHSSNLLRHQR

Variants of: B1
method-description: protein stability index of a GFP-peptide fusion (GPS, HEK-293T) (PSI 1-6); higher = more stable;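 note: lentivirally expressed fusions sorted by FACS into six bins by GFP to DsRed ratio, PSI derived from sequencing read proportions per bin multiplied by bin number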
conditions: c terminus: a fixed tail appended

{"columns": ["mutant-id", "protein stability index"],
 "data": [
  ["K2D", 3.24],
  ["G10I", 1.79],
  ["Y4Q", 3.06],
  ["Q23T", 2.25],
  ["F13C", 3.01],
  ["C6I", 3.23],
  ["Q23H", 2.34],
  ["I12L", 3.66],
  ["Q23V", 1.82],
  ["G10T", 1.92],
  ["H22Q", 1.54],
  ["P7G", 2.14],
  ["E11L", 1.76],
  ["I12K", 1.12],
  ["L19C", 4.49],
  ["Q23K", 2.9],
  ["N18T", 2.76],
  ["H22T", 1.43],
  ["C9F", 2.71],
  ["N18W", 2.06],
  ["E1A", 1.55],
  ["P3Q", 1.78],
  ["K5S", 2.64],
  ["S17A", 2.43],
  ["P3Y", 3.04],
  ["F13G", 2.35],
  ["S17G", 2.63],
  ["I12F", 1.82],
  ["R24I", 3.25],
  ["E1D", 2.94],
  ["A14W", 2.69],
  ["S16H", 2.55],
  ["H22C", 2.43],
  ["P3L", 2.57],
  ["K2W", 2.32],
  ["R24W", 2.74],
  ["L19F", 2.68],
  ["G10C", 1.94],
  ["F13D", 3.37],
  ["E1Q", 3.43],
  ["E8C", 3.16],
  ["Y4R", 2.48],
  ["E11M", 1.72],
  ["C9Y", 3.45],
  ["L19T", 2.16],
  ["K5T", 3.41]
]}
